assay.notes: Animal toxicity bioassay (acute toxicity, LD50)
Format: in vivo
condition: both sexes, mouse, in vivo, ip; white mice, intraperitoneal injection, observed 14 days; read-out: LD50 (animal toxicity)
Recorded LD50 at 14 days values for a group of compounds are listed next.

Observe how each entry below is paired with its result.
CCOC(=O)C(=O)C(=NNc1ccccc1)C(=O)c1ccc(Cl)cc1
> 2000 mg/kg
COc1ccc(C(=O)C(=NNc2ccccc2)C(=O)C(=O)O)cc1
< 750 mg/kg
COC(=O)C1(O)C(C(=O)c2ccc(C)cc2)=C(O)C(=O)N1c1ccc(C)cc1C (centres unmarked)
> 500 mg/kg
Cc1ccc(C(=O)C2=NN(c3ccccc3)C(=O)C2(O)O)cc1
> 500 mg/kg

# evaluate next
Quickly give me recorded LD50 at 14 days for COc1c(F)c(F)c(C(=O)C=C(O)C(=O)O)c(F)c1F
> 200 mg/kg
